Recorded mass density by entry
Conditions: 298.15 K; 101.33 kPa; Liquid; Vibrating tube method
Numbers after ± are expanded uncertainties.
The answer should read as a number with its unit following.

Examples with answers:
- COMPOUND: "CCCCCC"
  mass density: "655.19 ± 0.26 kg/m3"
- COMPOUND: "CCOS(=O)(=O)[O-].CC[n+]1cccc(C)c1 [1-ethyl-3-methylpyridinium ethylsulfate]"
  mass density: "1219.61 ± 0.42 kg/m3"
- COMPOUND: "Cc1ccccc1"
  mass density: "862.17 ± 0.11 kg/m3"

// query Hello, please tell me recorded mass density for this one: CCc1ccccc1
// result 862.51 ± 0.11 kg/m3

----------
Experiment: refractive index (Na D-line) (dimensionless)
Details: 298.15 K; 101.33 kPa; Liquid; refractometer
ENDPOINT: refractive index
Give the value as a plain number.

- COMPOUND: "CCCCCC [hexane]"
  refractive index: 1.37234
- COMPOUND: "CCOS(=O)(=O)[O-].CC[n+]1cccc(C)c1 [1-ethyl-3-methylpyridinium ethylsulfate]"
  refractive index: 1.50591
- COMPOUND: "CCc1ccccc1 [ethylbenzene]"
  refractive index: 1.49304

// switching to the query compound
// query State its refractive index: Cc1ccccc1 [toluene]
// result 1.49399
